Biological target: Fuc(a1-2)Gal(b1-4)GlcNAc
Assay: glycan array binding signal (z-score within array); higher = stronger binding
Settings: glycan notation: IUPAC condensed, linker removed
About 410 targets per protein were measured; listed, in parts, are those with the strongest signals and a random draw of the rest.

| binder | glycan array binding signal (z-score) |
| --- | --- |
| Arath Fbox (Arabidopsis thaliana), NP_178341.1 (protein) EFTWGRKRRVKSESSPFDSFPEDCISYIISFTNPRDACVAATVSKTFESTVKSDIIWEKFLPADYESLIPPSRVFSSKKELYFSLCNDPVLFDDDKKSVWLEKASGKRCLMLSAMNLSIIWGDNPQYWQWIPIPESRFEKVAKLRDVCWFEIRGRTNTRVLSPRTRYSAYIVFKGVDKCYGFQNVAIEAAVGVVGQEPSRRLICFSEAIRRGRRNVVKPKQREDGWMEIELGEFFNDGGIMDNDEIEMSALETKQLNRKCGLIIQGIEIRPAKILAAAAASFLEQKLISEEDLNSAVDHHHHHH | 0.005 |

The origin of these recorded values is the supplement of paper PMC8728848.
